assay: gradient 5% acetonitrile 3 min, to 50% in 2 min, to 85% in 15 min, held 3 min, 100 µL/min; settings: column: Zorbax Extend-C18 2.1 x 50 mm; eluents: water / acetonitrile, 0.1% formic acid
Endpoint label: RP-LC retention time (s)

Examples with their reported RP-LC retention time follow.
COc1ccc(SCCCC(=O)Nc2cccc(C)c2C)cc1: 906
Cc1cccc(-c2nnc(-c3nc(NCCc4c(C)noc4C)c4ccccc4n3)o2)c1: 956
Cc1noc(C2CN(C(=O)c3cc4ccccc4[nH]3)C2)n1: 675
COCc1c(C(=O)O)nnn1-c1cccc(OC)c1: 668
Cc1nc2ccn(Cc3cccs3)c(=O)c2cc1C(=O)NCC1CCCO1 (centres undefined): 670

(A) COCCNC(=O)C1CCc2sc(C(=O)N3CCCCC3)cc2C1 (centres undefined)
(B) CC(C)OC(=O)CCC/C=C\C[C@@H]1[C@@H](CC[C@@H](O)CCc2ccccc2)[C@H](O)C[C@@H]1O
## Input Would you mind telling me which has the lower recorded RP-LC retention time between A and B ? Give the label of your selection.
## Output A

###

experiment: gradient 5% acetonitrile 3 min, to 50% in 2 min, to 85% in 15 min, held 3 min, 100 µL/min; settings: column: Zorbax Extend-C18 2.1 x 50 mm; eluents: water / acetonitrile, 0.1% formic acid
Endpoint label: RP-LC retention time (s)

COc1ccc(C(O)CN2CCN(c3ccccc3C)CC2)cc1OC (centres undefined): 654
COc1ccc(CCS(=O)(=O)NCC2CCN(C(=O)Oc3ccccc3)CC2)cc1: 888
Cc1ccc(S(=O)(=O)N2C(=O)CCC2C(=O)Nc2cc(C)ccc2C)cc1 (centres undefined): 939
COc1ccc(-c2noc(-c3cccn(CC(=O)Nc4ccc(C#N)cc4)c3=O)n2)cc1OC: 779
O=C(c1ccsc1)N1CCCn2cc(-c3ccccc3)nc21: 640
COc1cccc(Cn2c(C)c(CNCc3ccc(C)o3)c(C(=O)O)c2C)c1: 715

(I) O=C(NCc1csc(-c2ccccc2)n1)C1CCN(S(=O)(=O)c2ccc(Cl)cc2)CC1
(II) Cc1nn(C)cc1C(=O)NC1CCN(c2ccc(=O)n(C)n2)C1 (centres undefined)
## Input Would you mind telling me which has the lower recorded RP-LC retention time between I and II ? Give the label of your selection.
## Output II

###

assay: gradient 5% acetonitrile 3 min, to 50% in 2 min, to 85% in 15 min, held 3 min, 100 µL/min; settings: column: Zorbax Extend-C18 2.1 x 50 mm; eluents: water / acetonitrile, 0.1% formic acid
Endpoint label: RP-LC retention time (s)

Examples with their reported RP-LC retention time follow.
Nc1nc(N2CCC3(CC2)OCCO3)ncc1S(=O)(=O)c1ccccc1: 808
O=C(Nc1cc(F)ccc1F)Nc1c(-c2ccc(F)cc2)nc2ccccn12: 706
Cc1cc(C)nc(NC(=O)NCCCSc2ccccn2)n1: 671

(1) Cc1nn(-c2nc(-c3ccc(Cl)cc3)cs2)c(C)c1CC(=O)NCc1ccccc1
(2) COc1cccc(C(=O)Nc2ccc3c(c2)Sc2ncccc2C(=O)N3C)c1
## Input Would you mind telling me which has the lower recorded RP-LC retention time between 1 and 2 ? Give the label of your selection.
## Output 2

###

test: gradient 5% acetonitrile 3 min, to 50% in 2 min, to 85% in 15 min, held 3 min, 100 µL/min; settings: column: Zorbax Extend-C18 2.1 x 50 mm; eluents: water / acetonitrile, 0.1% formic acid
Endpoint label: RP-LC retention time (s)

Examples with their reported RP-LC retention time follow.
CC(C)(C)C(=O)NCc1cccnc1-c1ccc(F)cc1: 614
CCc1ccc(NC(=O)Cn2c(N3CCCC3)nc(C)cc2=O)cc1: 699
CCCS(=O)(=O)N1C[C@@H](COC)[C@H](c2ccncc2)C1: 536

(a) Cc1nnc(-c2coc(S(=O)(=O)N3CCOCC3)c2)o1
(b) O=C(Nc1ccc(-c2nc(-c3ccccc3)co2)cc1)c1ccc(Br)o1
## Input Would you mind telling me which has the lower recorded RP-LC retention time between a and b ? Give the label of your selection.
## Output a
